target: Stimulator of interferon genes protein (Homo sapiens, UniProt Q86WV6); assay: Binding affinity to recombinant human His-tagged STING by measuring fluorescent signals in the presence of d2 labelled STING wild type ligand by HTRF based microplate reader analysis
Sequence (Q86WV6 whole entry): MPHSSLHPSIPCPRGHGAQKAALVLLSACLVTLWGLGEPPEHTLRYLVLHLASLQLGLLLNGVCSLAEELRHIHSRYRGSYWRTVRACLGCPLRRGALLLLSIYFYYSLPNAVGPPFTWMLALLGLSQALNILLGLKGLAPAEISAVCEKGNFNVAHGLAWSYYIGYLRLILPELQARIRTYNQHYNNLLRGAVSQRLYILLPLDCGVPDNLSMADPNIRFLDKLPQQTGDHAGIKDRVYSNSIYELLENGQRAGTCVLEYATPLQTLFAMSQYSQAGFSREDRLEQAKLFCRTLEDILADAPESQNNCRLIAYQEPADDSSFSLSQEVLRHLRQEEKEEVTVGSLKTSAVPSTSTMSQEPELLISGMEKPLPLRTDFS
Exercise: for every item that follows, state its recorded IC50.
Please respond with the number in nM and leave the unit unwritten.

What value of IC50 has been recorded for this entry: CCn1nc(C)cc1C(=O)Nc1nc2cc(C(N)=O)cc(OC)c2n1C/C=C/Cn1c(NC(=O)c2cc(C)nn2CC)nc2cc(C(N)=O)cc(OCCCNC(=O)OC(C)(C)C)c21
0.0623

What value of IC50 has been recorded for this entry: CCn1nc(C)cc1C(=O)Nc1nc2cc(C(N)=O)ccc2n1CCCCn1c(NC(=O)c2cc(C)nn2CC)nc2cc(C(N)=O)ccc21
6.16
